Tested on: SK-MEL-28
Assay: SRB colorimetric cell growth inhibition assay, SK-MEL-28
Assay type: cell-based
Conditions: Homo sapiens, SK-MEL-28, read-out: LC50 MEL-28, MEL-28; LC=cell killing (cytotoxic effect)
endpoint.name: CC50
Note: state the figure and append the unit.

Please respond with reported CC50 (system SK-MEL-28) for COc1cc(-c2c3c4cc(OC)c(OC(=O)[C@H](N)C(C)C)cc4oc(=O)c3n3ccc4c(OC(=O)[C@H](N)C(C)C)c(OC)c(OC)cc4c23)ccc1OC(=O)[C@H](N)C(C)C .
12.1 µM

Please respond with reported CC50 (system SK-MEL-28) for COc1cc(-c2c3n(c4c(=O)oc5cc(OC(=O)[C@@H](N)C(C)C)c(OC)cc5c24)CCc2c-3cc(OC)c(OC)c2OC(=O)[C@@H](N)C(C)C)ccc1OC(=O)[C@@H](N)C(C)C .
5.86 µM

Please respond with reported CC50 (system SK-MEL-28) for COc1cc(-c2c3n(c4c(=O)oc5cc(OC(=O)[C@@H](N)CO)c(OC)cc5c24)CCc2c-3cc(OC)c(OC)c2OC(=O)[C@@H](N)CO)ccc1OC(=O)[C@@H](N)CO .
5.67 µM

Please respond with reported CC50 (system SK-MEL-28) for COc1cc(-c2c3n(c4c(=O)oc5cc(OC(=O)[C@@H]6CCCN6)c(OC)cc5c24)CCc2cc(OC(=O)[C@@H]4CCCN4)c(OC)cc2-3)ccc1OC(=O)[C@@H]1CCCN1 .
6.04 µM
